study system: c-Ret (RET receptor tyrosine kinase) on NB41A3-mRL3 cells (UniProt P35546 29-1115, limits assumed)
Sequence (P35546 29-1115 limits assumed): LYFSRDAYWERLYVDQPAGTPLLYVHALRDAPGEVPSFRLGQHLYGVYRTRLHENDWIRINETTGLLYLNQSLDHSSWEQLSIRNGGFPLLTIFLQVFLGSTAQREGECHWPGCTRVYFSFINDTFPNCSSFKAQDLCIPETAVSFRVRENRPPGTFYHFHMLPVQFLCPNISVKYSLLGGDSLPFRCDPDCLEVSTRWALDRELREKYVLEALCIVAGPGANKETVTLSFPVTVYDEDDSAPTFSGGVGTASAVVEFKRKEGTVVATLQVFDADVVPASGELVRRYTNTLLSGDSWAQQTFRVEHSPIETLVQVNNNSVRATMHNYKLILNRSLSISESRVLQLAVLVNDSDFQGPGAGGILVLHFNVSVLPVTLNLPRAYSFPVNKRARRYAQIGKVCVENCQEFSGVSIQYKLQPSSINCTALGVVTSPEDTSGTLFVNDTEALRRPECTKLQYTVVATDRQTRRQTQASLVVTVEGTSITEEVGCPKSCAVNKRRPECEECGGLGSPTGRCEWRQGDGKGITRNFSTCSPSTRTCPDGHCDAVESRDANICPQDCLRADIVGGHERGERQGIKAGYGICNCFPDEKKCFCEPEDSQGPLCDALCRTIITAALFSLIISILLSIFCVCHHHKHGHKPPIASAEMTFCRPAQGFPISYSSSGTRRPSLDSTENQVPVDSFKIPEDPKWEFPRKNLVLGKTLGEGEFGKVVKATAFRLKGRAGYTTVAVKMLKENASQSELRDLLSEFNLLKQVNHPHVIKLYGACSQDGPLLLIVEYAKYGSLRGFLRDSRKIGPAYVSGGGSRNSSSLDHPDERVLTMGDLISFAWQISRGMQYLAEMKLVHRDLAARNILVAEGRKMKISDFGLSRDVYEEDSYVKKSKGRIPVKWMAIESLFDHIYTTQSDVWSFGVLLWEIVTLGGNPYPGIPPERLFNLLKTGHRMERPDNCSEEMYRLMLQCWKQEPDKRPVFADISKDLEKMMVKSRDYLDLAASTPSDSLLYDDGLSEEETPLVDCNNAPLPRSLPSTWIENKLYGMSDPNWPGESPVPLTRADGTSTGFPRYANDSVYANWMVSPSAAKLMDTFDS
assay text: cell-based or functional assay
Listing: KIRA:~ EC50 of selected binders

Bench note: what KIRA:~ EC50 did 4 × 5 kDa PEG NBN106-N95K (ligand, 5 kDa PEG on the amino terminus and on Lys95 of each chain (Table 8: 1, 1, 95, 95)) ARATDARGCRLRSQLVPVSALGLGHSSDELIRFRFCSGSCRRARSPHDLSLASLLGAGALRSPPGSRPISQPCCRPTRYEAVSFMDVKSTWRTVDHLSATACGCLG show? ~1 nM
